The following compounds are listed with their measured melting point values.

Cc1c(NC(=O)C(Cc2ccccc2)CC(F)(F)F)cnc2c(F)cccc12 (centres unmarked) ... 165 to 167 °C
O=C(Nc1cnc2c(F)cccc2c1)C(Cc1ccccc1)CC(F)(F)F (centres unmarked) ... 161 to 164 °C
C=C(C)CC(C)(Cc1ccccc1)C(=O)Nc1cnc2c(F)cccc2c1C (centres unmarked) ... 105 to 109 °C
O=C(Nc1cnc2c(F)cccc2c1)C(Cc1ccccc1)CC(F)(F)Cl (centres unmarked) ... 65 to 70 °C
C=C(Cl)CC(Cc1ccccc1)C(=O)Nc1cc2cccc(F)c2nc1C (centres unmarked) ... 96 to 99 °C

Query: Tell me the measured melting point of C=C(Cl)CC(Cc1ccccc1)C(=O)Nc1cnc2c(F)cccc2c1 (centres unmarked) , please.
Result: 166 to 168 °C

Query: GET /values?readout=melting point&item= CC(Cc1ccccc1)(CC(F)(F)F)C(=O)Nc1cnc2cc(F)ccc2c1 (centres unmarked)
Result: 180 to 182 °C

Query: Consider the compound CC#CCC(C)(Cc1ccccc1)C(=O)Nc1cnc2c(F)cccc2c1 (centres unmarked) and give its measured melting point.
Result: 136 to 138 °C

* * *

Listed below: melting point values for each entry.

Study these solved cases before continuing.
CN(C(=O)C(C)(Cc1ccccc1)CC(F)(F)F)c1cnc2c(F)cccc2c1 (stereo not drawn) [Compound E-42] ... 137 to 139 °C
COC(Cc1ccccc1)(CC(C)C)C(=O)Nc1cnc2c(F)cccc2c1 (stereo not drawn) [Compound E-38] ... 133 to 135 °C
CC(C)(C)C(Cc1ccccc1)C(=O)Nc1cnc2c(F)cccc2c1 (stereo not drawn) [Compound E-88] ... 212 to 215 °C
Cc1nc2c(Cl)cccc2cc1NC(=O)C(C)(Cc1ccccc1)CC(C)C (stereo not drawn) [Compound E-13] ... 99 to 100 °C
Cc1c(NC(=O)C(C)(Cc2ccccc2)CC(C)C)cnc2c(F)cccc12 (stereo not drawn) [Compound E-84] ... 73 to 79 °C
CC1(CC(Cc2ccccc2)C(=O)Nc2cnc3c(F)cccc3c2)CC1 (stereo not drawn) [Compound E-91] ... 135 to 136 °C

Query: GET /values?readout=melting point&item= C/C=C\CC(C)(Cc1ccccc1)C(=O)Nc1cnc2c(F)cccc2c1 (stereo not drawn) [Compound E-28]
Result: 128 to 130 °C

Query: Can you share its melting point? I mean this compound: COC(Cc1ccccc1)(CC(C)C)C(=O)Nc1cc2cccc(F)c2nc1C (stereo not drawn) [Compound E-37]
Result: 92 to 94 °C

Query: What value of melting point has been reported for the following compound? COC(C)(Cc1ccccc1)C(=O)Nc1cnc2c(F)cccc2c1 (stereo not drawn) [Compound E-43]
Result: 107 to 109 °C

Query: Need melting point, item CC1(CC(C)(Cc2ccccc2)C(=O)Nc2cnc3c(F)cccc3c2)CC1 (stereo not drawn) [Compound E-70]
Result: 149 to 151 °C

Query: What value of measured melting point is listed for CC(C)CC(C)(Cc1ccccc1)C(=O)Nc1cnc2c(F)cccc2c1 (stereo not drawn) [Compound E-87] ?
Result: 140 to 142 °C

Query: If you can, please state the reported melting point value of C=C(Cl)CC(Cc1ccccc1)C(=O)Nc1cnc2c(F)cccc2c1C (stereo not drawn) [Compound E-5] .
Result: 53 to 58 °C
